# System: Liver microsomes
# experiment-summary: Metabolic stability assessed as covalent binding in presence of NADPH and GSH in rat liver microsomes at 10 uM after 1 hr
# Type: ADME, Microsome
Reported Stability by item:
reported-endpoint: Stability

INSERT INTO assay_data (smiles_representation, reported_endpoint, result) VALUES
  ('COCCNC(=O)c1cccc2cc(Oc3ccnc4cc(OC)c(OC)cc34)ccc12', 'Stability', '1.6 pmol/mg/h'),
  ('COc1cc2nccc(Oc3ccc4c(C(=O)NC5CC5)cccc4c3)c2cc1OC', 'Stability', '153 pmol/mg/h'),
  ('COc1cc2nccc(Oc3ccc4c(C(N)=O)cccc4c3)c2cc1OC', 'Stability', '3.2 pmol/mg/h');

###

# Tested on: Mus musculus
# experiment-summary: Cmax in human HT29 cell xenografted CD1 nu/nu mouse at 10 mg/kg, po qd
# Assay type: ADME, organism-based, HT-29
# Parameters: dose 10 mg/kg, route oral
# recorded-conditions: in vivo
reported-endpoint: Cmax (nM)

INSERT INTO measurements (smiles_representation, reported_endpoint, measurement_units, numeric_value) VALUES
  ('COc1cc2nccc(Oc3ccc4c(C(N)=O)cccc4c3)c2cc1OC', 'Cmax', 'nM', 1300);

###

# experiment-summary: Volume of distribution at steady state in cynomolgus monkey at 0.5 mg/kg, iv
# Assay type: ADME, organism-based, Macaca fascicularis
# Design: dose 0.5 mg/kg, route intravenous
# recorded-conditions: in vivo, read-out: Vdss
reported-endpoint: Vd (L/kg)

INSERT INTO results (smiles_representation, numeric_value) VALUES
  ('COc1cc2nccc(Oc3ccc4c(C(N)=O)cccc4c3)c2cc1OC', 6.82);

###

# experiment-summary: Tmax in Sprague-Dawley rat at 2 mg/kg, po
# Format: ADME, organism-based
# Parameters: dose 2 mg/kg, route oral
# recorded-conditions: in vivo
reported-endpoint: Tmax (h)

INSERT INTO measurements (smiles_representation, numeric_value) VALUES
  ('COCCNC(=O)c1cccc2cc(Oc3ccnc4cc(OC)c(OC)cc34)ccc12', 2),
  ('COc1cc2nccc(Oc3ccc4c(C(=O)NC5CC5)cccc4c3)c2cc1C(N)=O', 0.67),
  ('COc1cc2nccc(Oc3ccc4c(C(N)=O)cccc4c3)c2cc1OC', 1.6),
  ('COCCNC(=O)c1cccc2cc(Oc3ccnc4cc(OC)c(C(N)=O)cc34)ccc12', 0.3);

###

# experiment-summary: Cmax in Sprague-Dawley rat at 2 mg/kg, po
# Type: ADME, organism-based
# Set-up: dose 2 mg/kg, route oral
# recorded-conditions: in vivo
reported-endpoint: Cmax (ng/mL)

INSERT INTO assay_data (smiles_representation, measurement_units, numeric_value) VALUES
  ('COCCNC(=O)c1cccc2cc(Oc3ccnc4cc(OC)c(OC)cc34)ccc12', 'ng/mL', 543),
  ('COc1cc2nccc(Oc3ccc4c(C(=O)NC5CC5)cccc4c3)c2cc1C(N)=O', 'ng/mL', 715),
  ('COCCNC(=O)c1cccc2cc(Oc3ccnc4cc(OC)c(C(N)=O)cc34)ccc12', 'ng/mL', 61),
  ('COc1cc2nccc(Oc3ccc4c(C(N)=O)cccc4c3)c2cc1OC', 'ng/mL', 1690);

###

# experiment-summary: Tmax in mouse at 10 mg/kg, po
# Type: ADME, organism-based
# Set-up: dose 10 mg/kg, route oral
# recorded-conditions: in vivo
reported-endpoint: Tmax (min)

INSERT INTO assay_data (smiles_representation, numeric_value) VALUES
  ('COc1cc2nccc(Oc3ccc4c(C(N)=O)cccc4c3)c2cc1OC', 15);

###

# experiment-summary: Volume of distribution at steady state in Sprague-Dawley rat at 1 mg/kg, iv
# Assay type: ADME, organism-based
# Set-up: dose 1 mg/kg, route intravenous
# recorded-conditions: in vivo, read-out: Vdss
reported-endpoint: Vd (L/kg)

INSERT INTO measurements (smiles_representation, numeric_value) VALUES
  ('COCCNC(=O)c1cccc2cc(Oc3ccnc4cc(OC)c(OC)cc34)ccc12', 1.13),
  ('COc1cc2nccc(Oc3ccc4c(C(=O)NC5CC5)cccc4c3)c2cc1OC', 1.04);

###

# experiment-summary: Cmax in cynomolgus monkey at 2 mg/kg, po
# Assay type: ADME, organism-based, Macaca fascicularis
# Set-up: dose 2 mg/kg, route oral
# recorded-conditions: in vivo
reported-endpoint: Cmax (µg/mL)

INSERT INTO measurements (smiles_representation, numeric_value) VALUES
  ('COc1cc2nccc(Oc3ccc4c(C(N)=O)cccc4c3)c2cc1OC', 1.05);

###

Below are compounds with their IC50 as measured on Tyrosine-protein kinase Lck (Homo sapiens).
Sequence (P06239 whole entry): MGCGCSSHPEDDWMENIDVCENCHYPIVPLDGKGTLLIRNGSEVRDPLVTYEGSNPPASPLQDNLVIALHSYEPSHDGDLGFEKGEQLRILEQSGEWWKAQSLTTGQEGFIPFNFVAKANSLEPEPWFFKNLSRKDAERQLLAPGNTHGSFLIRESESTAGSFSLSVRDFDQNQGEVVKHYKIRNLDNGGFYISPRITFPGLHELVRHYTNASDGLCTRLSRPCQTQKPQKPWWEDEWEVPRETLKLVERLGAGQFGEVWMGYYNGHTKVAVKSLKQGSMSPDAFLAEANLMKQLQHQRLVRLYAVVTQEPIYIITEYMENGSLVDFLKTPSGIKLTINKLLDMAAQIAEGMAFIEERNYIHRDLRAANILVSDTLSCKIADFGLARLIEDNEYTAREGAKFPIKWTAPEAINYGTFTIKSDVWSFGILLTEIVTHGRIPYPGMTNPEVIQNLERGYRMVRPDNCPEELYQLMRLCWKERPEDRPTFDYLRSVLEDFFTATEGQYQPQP
reported-endpoint: IC50 (nM)

INSERT INTO results (smiles_representation, reported_endpoint, measurement_units, numeric_value) VALUES
  ('COc1cc2nccc(Oc3ccc4c(C(=O)NC5CC5)cccc4c3)c2cc1OC', 'IC50', 'nM', 330),
  ('CNC(=O)c1cccc2cc(Oc3ccnc4cc(OC)c(OC)cc34)ccc12', 'IC50', 'nM', 700),
  ('CCCNC(=O)c1cccc2cc(Oc3ccnc4cc(OC)c(OC)cc34)ccc12', 'IC50', 'nM', 1300),
  ('COc1cc2nccc(Oc3ccc4c(C(=O)NCC(F)(F)F)cccc4c3)c2cc1OC', 'IC50', 'nM', 25000),
  ('COc1cc2nccc(Oc3ccc4c(C(=O)NC(C)(C)C)cccc4c3)c2cc1OC', 'IC50', 'nM', 4300);
